Target protein (sequence): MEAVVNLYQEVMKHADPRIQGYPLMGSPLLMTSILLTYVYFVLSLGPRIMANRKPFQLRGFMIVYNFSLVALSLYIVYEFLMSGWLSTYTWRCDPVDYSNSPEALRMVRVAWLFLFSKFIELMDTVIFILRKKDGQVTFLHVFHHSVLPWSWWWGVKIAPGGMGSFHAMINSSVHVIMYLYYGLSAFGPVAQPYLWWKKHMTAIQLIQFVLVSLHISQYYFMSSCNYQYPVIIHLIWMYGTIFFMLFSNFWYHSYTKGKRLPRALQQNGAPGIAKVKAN
OUTCOME_MEASURE: pIC50
Remember, pIC50 is on a log scale: it is -log10 of the molar concentration.

Query block: Look up pIC50 for this molecule: O=C1Nc2ccc(-c3ccn[nH]3)cc2[C@](CNC(=O)c2ccc(F)cc2)(C(F)(F)F)O1
Result block: 5.15

----------
Target: Very long chain fatty acid elongase 6 (Homo sapiens)
Sequence (Q9H5J4 whole entry): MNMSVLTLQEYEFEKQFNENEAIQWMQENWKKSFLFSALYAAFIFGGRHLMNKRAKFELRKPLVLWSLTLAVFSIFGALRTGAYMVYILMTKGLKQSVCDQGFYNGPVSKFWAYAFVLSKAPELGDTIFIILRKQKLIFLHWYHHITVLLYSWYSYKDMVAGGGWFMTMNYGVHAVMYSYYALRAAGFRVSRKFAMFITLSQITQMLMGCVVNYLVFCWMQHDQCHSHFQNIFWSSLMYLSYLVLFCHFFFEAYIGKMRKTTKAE
OUTCOME_MEASURE: IC50

Study these solved cases before continuing.
Query block: Find the measured IC50: item O=C(Nc1ccc(F)cc1)OCC1(C2CC2)OC(=O)Nc2ccc(Cl)cc21 (stereo not drawn) , target or system Very long chain fatty acid elongase 6 (Homo sapiens).
Result block: 1.41 µM

Query block: Thanks! And CS(=O)(=O)c1ccc(C(=O)NCC2(C(F)(F)F)OC(=O)Nc3ccc(Cl)cc32)cc1 (stereo not drawn) ?
Result block: > 10 µM

Others:
Query block: Find the measured IC50: item O=C1Nc2ccc(Cl)cc2C(CNC(=O)c2ccc(-c3ccccc3)cc2)(C(F)(F)F)O1 (stereo not drawn) , target or system Very long chain fatty acid elongase 6 (Homo sapiens).
Result block: > 10 µM

----------
assay: Cmax in Sprague-Dawley rat at 1 mg/kg, iv and 3 mg/kg, po; assay type: ADME, organism-based; conditions: in vivo
OUTCOME_MEASURE: Cmax
Note to self: number, then unit, no commentary.

Query block: Look up Cmax for this compound: O=C1Nc2ccc(-c3ccn[nH]3)cc2[C@](CNC(=O)c2ccc(F)cc2)(C(F)(F)F)O1
Result block: 2400 nM

----------
experiment: Plasma clearance in Sprague-Dawley rat at 1 mg/kg, iv and 3 mg/kg, po; format: ADME, organism-based
OUTCOME_MEASURE: clearance (mL/min/kg)
// note: answer is a bare numeric in mL/min/kg

Query block: Look up clearance for this molecule: O=C1Nc2ccc(-c3ccn[nH]3)cc2[C@](CNC(=O)c2ccc(F)cc2)(C(F)(F)F)O1
Result block: 11

----------
assay: AUC (0 to infinity) in Sprague-Dawley rat at 1 mg/kg, iv and 3 mg/kg, po; format: ADME, organism-based; settings: plasma
OUTCOME_MEASURE: AUC(0-inf) (µM·h)
// note: answer is a bare numeric in µM·h

Query block: Look up AUC(0-inf) for this compound: O=C1Nc2ccc(-c3ccn[nH]3)cc2[C@](CNC(=O)c2ccc(F)cc2)(C(F)(F)F)O1
Result block: 4.69
